System: human APOE RNA
procedure summary: Dose-dependent inhibition of human APOE RNA in HepG2 cells, electroporation, 50,000 cells per well, RT-PCR normalized to GAPDH (Example 4, Tables 8-10)
Assay type: cell-based
condition info: HepG2, electroporation, 16-hour treatment
Protocol: Modified oligonucleotides selected from the examples above were tested at various doses in HepG2 cells. The modified oligonucleotides were tested in a series of experiments that had the same culture conditions. Each experiment is identified in separate tables below. HepG2 cells plated at a density of 50,000 cells per well were treated by electroporation with various concentrations of modified oligonucleotide as specified in the tables below. […]
pIC50: −log10 of the molar value. Strand notation (5' to 3'): a small letter for the sugar, then the base; units joined by * are phosphorothioate-linked, units joined directly phosphodiester-linked; [ ] holds rarer units or linkages, { } end groups; capitals alone tell only the bases. e = 2'-O-(2-methoxyethyl) (MOE); k = constrained ethyl (cEt); [5mC] = 5-methylcytosine; d = 2'-deoxy (DNA)
Assign class by pIC50: not lower than 6 means yes (1); lower than 6 means no (0).

substance	label class
1757586 (eT*eTeGeGkT*dG*dA*dA*dT*d[5mC]*dT*dT*dT*dA*dT*kTkAeA*eA*e[5mC]; antisense) [Compound 1757586]	yes (1)
1757541: mixed MOE/cEt gapmer TTGGTGAATCTTTATTAA, sugar eeeekddddddddeeeee, linkages soossssssssssooss (eT*eTeGeG*kT*dG*dA*dA*dT*d[5mC]*dT*dT*dT*eAeTeT*eA*eA) [compound 1757541]	no (0)
1757559: mixed MOE/cEt gapmer TTGGTGAATCTTTATTAA, sugar eeeekddddddddkeeee, linkages soossssssssssooss (eT*eTeGeG*kT*dG*dA*dA*dT*d[5mC]*dT*dT*dT*kAeTeT*eA*eA) [compound 1757559]	no (0)
1757567 (eA*e[5mC]eTeTeG*dG*dT*dG*dA*dA*dT*d[5mC]*dT*dT*dT*kAeTeT*eA*eA; antisense) [Compound 1757567]	no (0)

====

System: human APOE RNA
procedure summary: Dose-dependent inhibition of human APOE RNA in HepG2 cells, electroporation, 50,000 cells per well, RT-PCR normalized to GAPDH (Example 4, Tables 8-10)
Format: cell-based
condition info: 205 nM; HepG2, electroporation, 16-hour treatment
Strand notation (5' to 3'): a small letter for the sugar, then the base; units joined by * are phosphorothioate-linked, units joined directly phosphodiester-linked; [ ] holds rarer units or linkages, { } end groups; capitals alone tell only the bases. [ms] = mesyl phosphoramidate linkage; e = 2'-O-(2-methoxyethyl) (MOE); k = constrained ethyl (cEt); [5mC] = 5-methylcytosine; d = 2'-deoxy (DNA)
measurement type: APOE RNA (% UTC)

substance	measurement type	assay result
1757561: mixed MOE/cEt gapmer TTGGTGAATCTTTATTAA, sugar eeekkddddddddkeeee, linkages soossssssssssooss (eT*eTeGkG*kT*dG*dA*dA*dT*d[5mC]*dT*dT*dT*kAeTeT*eA*eA) [compound 1757561]	APOE RNA (% UTC)	130
1757564: mixed MOE/cEt gapmer TTGGTGAATCTTTATTAA, sugar eeeekddddddddkeeke, linkages soossssssssssooss (eT*eTeGeG*kT*dG*dA*dA*dT*d[5mC]*dT*dT*dT*kAeTeT*kA*eA) [compound 1757564]	APOE RNA (% UTC)	82
1757557: mixed MOE/cEt gapmer TTGGTGAATCTTTATTAA, sugar eeeeeddddddddeekke, linkages soossssssssssooss (eT*eTeGeG*eT*dG*dA*dA*dT*d[5mC]*dT*dT*dT*eAeTkT*kA*eA) [compound 1757557]	APOE RNA (% UTC)	86
1757565 (eA*e[5mC]eTeTkG*dG*dT*dG*dA*dA*dT*d[5mC]*dT*dT*dT*eAeTeT*eA*eA; antisense) [Compound 1757565]	APOE RNA (% UTC)	89
1757571 (eA*e[5mC]eTeT*eG*kG*dT*dG[ms]dA[ms]dA[ms]dT*d[5mC]*dT*dT*dT*dA[ms]eT*eT*eA*eA; antisense) [Compound 1757571]	APOE RNA (% UTC)	103
1757570 (eA*e[5mC]eTeTkG*dG*dT*dG*dA*dA*dT*d[5mC]*dT*dT*dT*kAkTeT*eA*eA; antisense) [Compound 1757570]	APOE RNA (% UTC)	62
Aes^mCeoTeoTesGesGksTdsGdzAdzAdzTds^mCdsTdsTdsTdsAdzTksTksAesAe (eA*e[5mC]eTeT*eG*kG*dT*dG[ms]dA[ms]dA[ms]dT*d[5mC]*dT*dT*dT*dA[ms]kT*kT*eA*eA) [Compound No. 1757576]	APOE RNA (% UTC)	74
1757554: mixed MOE/cEt gapmer TTGGTGAATCTTTATTAA, sugar kkeeeddddddddeeeee, linkages soossssssssssooss (kT*kTeGeG*eT*dG*dA*dA*dT*d[5mC]*dT*dT*dT*eAeTeT*eA*eA) [compound 1757554]	APOE RNA (% UTC)	89
1757585 (eT*eTeGkGkT*dG*dA*dA*dT*d[5mC]*dT*dT*dT*dA*dT*kTeAeA*eA*e[5mC]; antisense) [Compound 1757585]	APOE RNA (% UTC)	33

====

Collected APOE RNA (% control) Cortex values appear next to each entry.
Test system: human APOE RNA
procedure summary: Activity in APOE C57BL/6NTac-Apoeem7250 knock-in mice, single ICV bolus, 16 weeks (Example 12)
Type: in vivo
condition info: cortex; single ICV bolus 300 μg; 16 weeks post treatment; normalized to mouse Ppia
Strand notation (5' to 3'): a small letter for the sugar, then the base; units joined by * are phosphorothioate-linked, units joined directly phosphodiester-linked; [ ] holds rarer units or linkages, { } end groups; capitals alone tell only the bases. [ms] = mesyl phosphoramidate linkage; e = 2'-O-(2-methoxyethyl) (MOE); [5mC] = 5-methylcytosine; d = 2'-deoxy (DNA)
measurement type: APOE RNA (% control) Cortex

substance	measurement type	assay result
1693067: 5-10-5 MOE gapmer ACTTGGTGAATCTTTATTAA, linkages ssosssszzzszsssssss (antisense eA*e[5mC]*eTeT*eG*dG*dT*dG[ms]dA[ms]dA[ms]dT*d[5mC][ms]dT*dT*dT*eA*eT*eT*eA*eA) [compound 1693067]	APOE RNA (% control) Cortex	97
1693063: 5-10-5 MOE gapmer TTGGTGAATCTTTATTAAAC, linkages ssssszzzsssszzsssss (antisense eT*eT*eG*eG*eT*dG[ms]dA[ms]dA[ms]dT*d[5mC]*dT*dT*dT[ms]dA[ms]dT*eT*eA*eA*eA*e[5mC]) [compound 1693063]	APOE RNA (% control) Cortex	97
1693050: 5-10-5 MOE gapmer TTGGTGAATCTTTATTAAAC, linkages soosszzzsssssssosss (antisense eT*eTeGeG*eT*dG[ms]dA[ms]dA[ms]dT*d[5mC]*dT*dT*dT*dA*dT*eTeA*eA*eA*e[5mC]) [compound 1693050]	APOE RNA (% control) Cortex	100
1693058: 5-10-5 MOE gapmer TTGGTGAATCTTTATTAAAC, linkages sssoszzzssssszsosss (antisense eT*eT*eG*eGeT*dG[ms]dA[ms]dA[ms]dT*d[5mC]*dT*dT*dT*dA[ms]dT*eTeA*eA*eA*e[5mC]) [compound 1693058]	APOE RNA (% control) Cortex	113

====

Tested on: human APOE RNA
procedure summary: Dose-dependent inhibition of human APOE RNA in HepG2 cells, electroporation, 50,000 cells per well, RT-PCR normalized to GAPDH (Example 4, Tables 8-10)
Type: cell-based
condition info: HepG2 cells, electroporation, 24-hour treatment, 33 nM, Table 8
Strand notation (5' to 3'): a small letter for the sugar, then the base; units joined by * are phosphorothioate-linked, units joined directly phosphodiester-linked; [ ] holds rarer units or linkages, { } end groups; capitals alone tell only the bases. [ms] = mesyl phosphoramidate linkage; e = 2'-O-(2-methoxyethyl) (MOE); k = constrained ethyl (cEt); [5mC] = 5-methylcytosine; d = 2'-deoxy (DNA)
Collected APOE RNA (% UTC) 33 nM values appear next to each entry.
measurement type: APOE RNA (% UTC) 33 nM

substance	measurement type	value unit	assay result
1778115: modified oligonucleotide complementary to human APOE RNA (eA*e[5mC]eTeTkGkG*dT*dG[ms]dA[ms]dA*dT*d[5mC]*dT*dT*dT*dA[ms]eTeT*eA*eA; antisense) [compound 1778115]	APOE RNA (% UTC) 33 nM	% UTC	73
1785599: modified oligonucleotide complementary to human APOE RNA (k[5mC]*kT*kT*dG[ms]dG[ms]dT[ms]dG[ms]dA[ms]dA[ms]dT[ms]d[5mC]*dT*dT*dT*dA*dT*kT*kA*dA[ms]kA; antisense) [compound 1785599]	APOE RNA (% UTC) 33 nM	% UTC	100
